Molecular target: T1, human CD30 (commercial, conjugated to digoxigenin) (human, UniProt P28908 19-379, limits assumed, conjugated to digoxigenin (DIG))
T1 sequence (looked up): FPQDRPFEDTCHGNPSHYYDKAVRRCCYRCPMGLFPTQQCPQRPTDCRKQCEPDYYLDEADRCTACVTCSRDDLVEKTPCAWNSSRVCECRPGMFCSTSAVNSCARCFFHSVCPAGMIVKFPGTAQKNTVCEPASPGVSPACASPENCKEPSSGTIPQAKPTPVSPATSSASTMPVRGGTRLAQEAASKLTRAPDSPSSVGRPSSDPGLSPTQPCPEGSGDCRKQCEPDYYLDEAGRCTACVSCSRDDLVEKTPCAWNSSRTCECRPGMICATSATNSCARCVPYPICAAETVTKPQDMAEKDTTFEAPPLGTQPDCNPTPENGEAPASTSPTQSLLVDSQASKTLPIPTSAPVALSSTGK
Assay: AlphaScreen competition
For each entry below, report its Fold IC50 vs H3/L3 value.
Just the number plus its unit, please.

Enquiry: Report Fold IC50 vs H3/L3 for AC10 H3/L3.23 (antibody, IgG1, name in Kabat numbering, V domains shown) VH: QIQLVQSGPEVKKPGASVKVSCKASGYTFTDYYITWVRQAPGQGLEWMGWIYPGSGNTKYNEKFQGRFVFSVDTSASTAYLQISSLKAEDTAVYFCANYGNYWFAYWGQGTLVTVSS VL: DIVLTQSPDSLAVSLGERATINCKASQSVDFDGDNYMNWYQQKPGQPPKVLIYAASNLESGIPARFSGSGSGTDFTLTINSLEAEDAATYYCQQSNEDPWTFGGGTKVEIK please.
Return: 0.71 fold

Enquiry: Please answer likewise for AC10 H3/L3.43 (antibody, IgG1, name in Kabat numbering, V domains shown) VH: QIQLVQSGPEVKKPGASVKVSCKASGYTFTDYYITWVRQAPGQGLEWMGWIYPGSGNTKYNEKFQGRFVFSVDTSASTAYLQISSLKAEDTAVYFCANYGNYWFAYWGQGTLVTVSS VL: DIVLTQSPDSLAVSLGERATINCKASQSVDFDGDSYMNWYQQKPGQPPKVLIYAASNLESGIPDRFSGSGSGTDFTLTINSLEAEDAATYYCQQSNEDPWTFGGGTKVEIK
Return: 1.16 fold

Enquiry: Please answer likewise for AC10 H3/L3.48 (antibody, IgG1, name in Kabat numbering, V domains shown) VH: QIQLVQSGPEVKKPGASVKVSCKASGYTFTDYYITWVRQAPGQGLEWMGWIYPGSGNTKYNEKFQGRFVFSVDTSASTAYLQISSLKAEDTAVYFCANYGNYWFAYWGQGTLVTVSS VL: DIVLTQSPDSLAVSLGERATINCKASQSVDFDGDSYMNWYQQKPGQPPKVLIYAASNLESGIPARFSGSGSGTDFTLTINSLEAEDAATYYCQQGNEDPWTFGGGTKVEIK
Return: 0.29 fold

Values compiled from patent US7657380.
